Listed here: items and their measured GI50.
System: 786-0
procedure-details: NCI tumour cell line growth inhibition, 48 h
The source made the active and inactive calls. Cut-off read from the data, not from the text of the source: active = GI50 up to about 1.1 µM and inactive = higher.

Solved cases below.
COc1ccc2c(c1)[n+]([O-])c(-c1ccccc1Cl)c(N)[n+]2[O-]	> 100 µM (inactive)
N=C(N)C1CN(CC=O)C(=O)NC1=O (configuration not stated)	> 100 µM (inactive)
O=C1c2ccccc2N2OC3C4CCC(C4)C3C12c1ccccc1 (configuration not stated)	> 100 µM (inactive)
c1nc(OCC2CCCCC2)c2nc[nH]c2n1	> 100 µM (inactive)
O=C1Nc2ccccc2/C1=N/N=c1\cccc[nH]1	12.9 µM (inactive)

Name the reported GI50 value associated with the compound C[N+]1(CCC[N+]2(C)CC3C4C=CC(CC4)C3C2)CCOCC1 (configuration not stated)
> 100 µM (inactive)

Name the reported GI50 value associated with the compound CCOC(=O)C1Cc2ccc(C)cc2C1=O (configuration not stated)
> 100 µM (inactive)

Name the reported GI50 value associated with the compound CC(C)(CN)SCc1ccccc1
> 100 µM (inactive)

Name the reported GI50 value associated with the compound CC(=O)n1nc(-c2ccccc2)n(/N=C/c2ccc([N+](=O)[O-])cc2)c1=O
> 100 µM (inactive)

Name the reported GI50 value associated with the compound C=CCc1ccccc1CC1(OCC)OC(=O)c2ccccc21 (configuration not stated)
> 100 µM (inactive)

Name the reported GI50 value associated with the compound Cc1cccc(C)c1NC(=O)C1C(=O)N(c2c(C)cccc2C)C(=O)/C1=N\NC(N)=S (configuration not stated)
> 100 µM (inactive)

Name the reported GI50 value associated with the compound C=C(C)[C@H]1CC[C@@]2(C)C(C1)[C@H](C)CC[C@@H]2O (some centres not stated)
> 100 µM (inactive)

----------
Test system: KM12
procedure-details: NCI tumour cell line growth inhibition, 48 h
The source made the active and inactive calls. Cut-off read from the data, not from the text of the source: active = GI50 up to about 1.1 µM and inactive = higher.
Listed here: items and their measured GI50.

Solved cases below.
COc1ccc2c(c1)[n+]([O-])c(-c1ccc(C)cc1)c(N)[n+]2[O-]	44.8 µM (inactive)
CC(C)=CCC[C@@H](C)C1=CC(=O)C(C)=C(O)C1=O [ISOPEREZONE]	5.09 µM (inactive)
NC1=C(NC(=O)Cc2ccc(F)cc2)C(=O)c2ccccc2C1=O	> 76.9 µM (inactive)
CCN(CC)CCCn1cnc2ncccc2c1=O	> 100 µM (inactive)
c1ccc2c(c1)ncn2C1CCCCO1 (configuration not stated)	> 100 µM (inactive)
C=C(C)[C@H]1CC[C@@]2(C)C(C1)[C@H](C)CC[C@@H]2O (some centres not stated)	> 100 µM (inactive)

Name the reported GI50 value associated with the molecule CC(C)(CN)SCc1ccccc1
> 100 µM (inactive)

Name the reported GI50 value associated with the molecule Fc1ccc(-c2sc(-c3ccsc3)cc2Cc2ccsc2)cc1
> 10 µM (inactive)

Name the reported GI50 value associated with the molecule CNC(=O)CN1CC(=O)N(C)C(=O)C1
> 100 µM (inactive)

----------
Test system: SK-MEL-5
procedure-details: NCI tumour cell line growth inhibition, 48 h
Calls of active or inactive are those of the source. Cut-off read from the data, not from the text of the source: active = GI50 up to about 1.1 µM and inactive = higher.
One label from this list, please: label 1 = active, label 0 = inactive

Answer briefly: the call reported for COc1ccc2c(c1)-c1nc(=S)n(CCCN(C)C)c3ccc([N+](=O)[O-])c(c13)N2 in this assay.
label 0
